# Test system: Ba/F3 EGFR ASV ins cells
# PROCEDURE_SUMMARY: Cell proliferation, Ba/F3 EGFR ASV ins (CellTiter-Glo, 72 h);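 note: IL3-independent Ba/F3 cells transduced with EGFR V769_D770insASV, cellular ATP luminescence after compound exposure, growth relative to DMSO control with the day-0 baseline reading subtracted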
# Type: cell-based
# ASSAY_CONTEXT: Ba/F3 EGFR, 72 h, Ba/F3 EGFR ASV ins, 72 h proliferation; read-out: EGFR Exon20 ASV insertion GI50
Reported GI50 by item:
Enter your answer as a number in nM; do not include the unit.

MOLECULE	GI50 / nM
C=CC(=O)N1CCC(Oc2cc3c(Nc4ccc(Cl)c(Cl)c4F)ncnc3cc2OC)CC1 [Poziotinib, reference compound]	4.1
C=CC(=O)Nc1cc(Nc2nccc(Nc3cc(Cl)c(F)cc3C(C)(O)CC)n2)c(OC)cc1N1CC[C@@H](N(C)C)C1 (single isomer, unassigned) [Compound 76]	113
C=CC(=O)Nc1cc(Nc2ncnc(Nc3ccccc3C(C)(C)O)n2)c(OC)cc1N1CCC[C@@H](N(C)C)C1 [Compound 1]	926
C=CC(=O)Nc1cc(Nc2ncnc(Nc3cc(Cl)c(F)cc3C(C)(O)CC)n2)c(OC)cc1N(C)CCN(C)C (stereo not drawn) [Compound 67]	21.9
COc1cc(N(C)CCN(C)C)c(NC(=O)/C=C/CN(C)C)cc1Nc1ncnc(Nc2cc(F)c(F)cc2C(C)(C)O)n1 [Compound 5]	234

GI50 value, target or system Ba/F3 EGFR ASV ins cells, for C=CC(=O)Nc1cc(Nc2ncnc(Nc3cc(F)c(F)cc3C(C)(O)CC)n2)c(OC)cc1N1CC[C@@H]2CN(C)C[C@@H]21 (stereo partly drawn) [Compound 47] : 22.1
